Each entry below lists one item and its recorded pIC50 value.
# SUBJECT_OF_TEST: rat NaP2b (SLC34A2) (Rattus norvegicus)
# Construct: host or cells: HEK293
# Sequence (Q9JJ09 1-695): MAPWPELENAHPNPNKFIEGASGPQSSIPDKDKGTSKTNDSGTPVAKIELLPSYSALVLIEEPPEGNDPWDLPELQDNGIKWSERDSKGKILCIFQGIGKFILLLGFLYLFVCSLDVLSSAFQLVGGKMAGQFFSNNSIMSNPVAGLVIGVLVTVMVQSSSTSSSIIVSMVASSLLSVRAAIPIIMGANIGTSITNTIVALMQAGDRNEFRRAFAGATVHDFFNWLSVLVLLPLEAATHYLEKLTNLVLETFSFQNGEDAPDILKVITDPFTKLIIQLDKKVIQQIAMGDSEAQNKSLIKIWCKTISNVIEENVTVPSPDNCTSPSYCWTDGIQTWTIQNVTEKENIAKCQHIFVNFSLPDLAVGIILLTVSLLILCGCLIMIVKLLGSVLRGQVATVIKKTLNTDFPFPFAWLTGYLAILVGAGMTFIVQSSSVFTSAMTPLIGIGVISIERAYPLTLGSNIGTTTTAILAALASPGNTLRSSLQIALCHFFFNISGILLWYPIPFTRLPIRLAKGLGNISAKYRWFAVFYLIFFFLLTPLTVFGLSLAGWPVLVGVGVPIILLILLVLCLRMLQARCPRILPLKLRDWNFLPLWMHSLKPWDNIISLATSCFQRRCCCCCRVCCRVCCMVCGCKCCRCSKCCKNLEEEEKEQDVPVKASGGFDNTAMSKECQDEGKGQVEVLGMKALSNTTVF
# EXPERIMENTAL_DETAILS: Inhibition of NaP2b-mediated Pi (33P) uptake in transfected HEK293 cells, rat NaP2b
# Format: cell-based
# CONDITIONS_USED: 33P Pi uptake, 0.1 mM phosphate, value given as pIC50 range
pIC50: −log10 of the molar value.

Some compounds with recorded pIC50:
INSERT INTO measurements (compound, subject_of_test, endpoint_label, result) VALUES
  ('CCN(CC)c1ccc(NC(=O)c2cccc(CCCOCCOCCOCCOCCNC(=O)c3cccnc3)c2)c(-c2cc(C(=O)N[C@H]3CCCc4ccccc43)ccn2)c1 [Example 324]', 'rat NaP2b (SLC34A2) (Rattus norvegicus)', 'pIC50', '> 6.00'),
  ('COCCN(CCOCCOCCOCCC(=O)O)CCN(C)C(=O)c1cccc(C(=O)Nc2ccc(N3CCCCC3)cc2-c2cc(C(=O)N[C@H]3CCCc4ccccc43)ccn2)c1 [Example 221]', 'rat NaP2b (SLC34A2) (Rattus norvegicus)', 'pIC50', '4.50 to 5.00'),
  ('CCN(CC)c1ccc(NC(=O)c2cccc(CCCOCCOCCOCC[N+](CC)(CC)CC)c2)c(-c2cc(C(=O)NCc3cccc(C(F)(F)F)c3)ccn2)c1 [Example 330]', 'rat NaP2b (SLC34A2) (Rattus norvegicus)', 'pIC50', '5.10 to 6.00');

Next compound, pIC50 to be filled in.
Problem: Requested field: pIC50. Item: O=C(O)CCSCc1cccc(C(=O)Nc2ccc(N3CCCCC3)cc2-c2cc(C(=O)NCc3ccc(F)c(C(F)(F)F)c3)ccn2)c1 [Example 1.28]
Result: 5.10 to 6.00
